Kindly state Ratio for each of the entries shown.
- protocol.summary: Resistance ratio of IC50 for antiproliferative activity against multidrug resistant mouse L5178Y cells transfected with human ABCB1 to IC50 for antiproliferative activity against mouse L5178Y cells
- Format: functional
Answers are plain numbers.

> print(dat)
                            compound.smiles  result.number
1  C=C1CC[C@@H]2[C@](C)(COC(C)=O)[C@H](OC(C)=O)CC[C@@]2(C)[C@@H]1C[C@H](NNC(=S)Nc1ccccc1C)C1=CCOC1=O           1.42
2  C=C1CC[C@@H]2[C@](C)(COC(C)=O)[C@H](OC(C)=O)CC[C@@]2(C)[C@@H]1C/C=C1/C(=O)OC[C@H]1OC(C)=O           1.45
3  C=C1CC[C@@H]2[C@](C)(COC(C)=O)[C@H](OC(C)=O)CC[C@@]2(C)[C@@H]1C[C@H](NNC(=O)c1ccco1)C1=CCOC1=O           1.38
4  C=C1CC[C@@H]2[C@](C)(COC(C)=O)[C@H](OC(C)=O)CC[C@@]2(C)[C@@H]1C[C@H](NNC(=O)c1ccc(C(F)(F)F)cc1)C1=CCOC1=O           1.75
5  C=C1CC[C@@H]2[C@](C)(COC(C)=O)[C@H](OC(C)=O)CC[C@@]2(C)[C@@H]1C[C@H](NNC(=S)NCc1ccccc1)C1=CCOC1=O           1.01

Data request: Assign Ratio to the following record: C=C1CC[C@@H]2[C@](C)(COC(C)=O)[C@H](OC(C)=O)CC[C@@]2(C)[C@@H]1C[C@H](NNC(=S)NC1CCCCC1)C1=CCOC1=O
Data returned: 0.89

----------
Kindly state IC50 for each of the entries shown.
- System: L5178Y
- protocol.summary: Antiproliferative activity against mouse L5178Y cells assessed as reduction in cell viability incubated for 72 hrs by MTT assay
- Type: functional, cell-based
Give bare numbers, in µM.

> print(dat)
                            compound.smiles  target.entity  units.of.measure  result.number
1  C=C1CC[C@@H]2[C@](C)(COC(C)=O)[C@H](OC(C)=O)CC[C@@]2(C)[C@@H]1C[C@H](NNC(=S)NC(C)(C)C)C1=CCOC1=O         L5178Y                µM           60.1
2  C=C1CC[C@@H]2[C@](C)(COC(C)=O)[C@H](OC(C)=O)CC[C@@]2(C)[C@@H]1C[C@H](NNC(=S)NCc1ccccc1)C1=CCOC1=O         L5178Y                µM           66.9
3  C=C1CC[C@@H]2[C@](C)(COC(C)=O)[C@H](OC(C)=O)CC[C@@]2(C)[C@@H]1C[C@@H](NNC(=O)c1ccc(C(F)(F)F)cc1)C1=CCOC1=O         L5178Y                µM           14.2
4  C=C1CC[C@@H]2[C@](C)(COC(C)=O)[C@H](OC(C)=O)CC[C@@]2(C)[C@@H]1C[C@H](NNC(=S)Nc1ccccc1)C1=CCOC1=O         L5178Y                µM           51.7
5  C=C1CC[C@@H]2[C@](C)(COC(C)=O)[C@H](OC(C)=O)CC[C@@]2(C)[C@@H]1C[C@H](NNC(=O)c1ccc(C(F)(F)F)cc1)C1=CCOC1=O         L5178Y                µM           6.74

Data request: Retrieve IC50 measured for C=C1CC[C@@H]2[C@](C)(COC(C)=O)[C@H](OC(C)=O)CC[C@@]2(C)[C@@H]1C[C@H](NNC(=S)Nc1ccc(CC)cc1)C1=CCOC1=O and print it.
Data returned: 38.9
